System: SMN2-linked luciferase-reporter gene construct
Test: SMN Splice Reporter Assay (SMN2-linked luciferase reporter)
Assay type: cell-based
Conditions: cervical carcinoma cell lines, SMN2 splice luciferase reporter
From the text: As previously discussed, SMN1 is the gene deleted in SMA patients; the SMN2 gene remains intact in both SMA and normal patients. […] Cervical carcinoma cell lines were transformed with a SMN2-linked luciferase-reporter gene construct. […] Luciferase sequences are in the correct translational reading frame only when the SMN2 sequences are spliced according to the normal SMN1 mechanism (e.g., splicing to include exon 7), which allows for translation of the stable SMN protein. […]
property: EC50 (nM)

Previously resolved entries follow.
>  <compound>
O=C1c2ccccc2CN1c1ccc2c(c1)OC(F)(F)O2 [Example 116485]

>  <val>
2240

$$$$
>  <compound>
COc1ccc2c(c1)C(=O)N(c1ccc3nc(OC)ccc3c1)C2 [Example 123333]

>  <val>
20

$$$$
>  <compound>
O=C1c2ccccc2CN1c1ccc2c(c1)CCC2 [Example 116070]

>  <val>
67

$$$$
>  <compound>
CCCCc1ccc2c(c1)C(=O)N(c1ccc3c(ccn3C)c1)C2 [Example 121928]

>  <val>
148

$$$$
>  <compound>
Cn1ccc2cc(N3Cc4ccc(-c5cccnc5)cc4C3=O)ccc21 [Example 122042]

>  <val>
728

$$$$

I: COc1ccc2c(c1)C(=O)N(c1ccc3c(C)ccnc3c1)C2 [Example 124038]
II: O=C1c2cc(OC(F)F)ccc2CN1c1ccc2ncccc2c1 [Example 120790]
Query: Between I and II , which one shows the larger EC50 value? Let me know the label of the one you choose.
Result: II

P: COc1ccc2c(c1)C(=O)N(c1ccc3ncsc3c1)C2 [Example 120596]
Q: CC(=O)Nc1cccc2c1C(=O)N(c1ccc3ccn(C)c3c1)C2 [Example 121082]
Query: Could you check which of P and Q has a smaller value for EC50? Kindly state the label of the option you pick.
Result: P
(P: 126 nM, Q: 825 nM)
